Organism: Homo sapiens
TEST: Inhibition of human recombinant DNA topoisomerase 2 assessed as reduction in enzyme-mediated relaxation of supercoiled pBR322 plasmid DNA at 20 uM in presence of 0.1% BSA by ethidium bromide staining based gel electrophoresis and UV spectroscopy
Form field: inhibition (one value per entry).
Numbers only; they are read as %.

Input line: # inhibition lookup, item Clc1ccc(-c2cc(-c3ccsc3)c3oc4ccccc4c3n2)cc1
Output line: 10.1

Input line: Given Clc1ccccc1-c1cc(-c2ccccc2)c2oc3ccccc3c2n1 , state its recorded inhibition.
Output line: 6.9

Input line: Bench note: what inhibition did Clc1ccc(-c2cc(-c3ccc(Cl)o3)c3oc4ccccc4c3n2)cc1 show?
Output line: 73.7

* * *

TGT: DNA topoisomerase 1 (Homo sapiens) (UniProt P11387)
TEST: Inhibition of human recombinant DNA topoisomerase 1 assessed as reduction in enzyme-mediated relaxation of supercoiled pBR322 plasmid DNA at 100 uM in presence of 0.1% BSA by ethidium bromide staining based gel electrophoresis and UV spectroscopy relative to camptothecin
READOUT TYPE: fold change (FC)
The answer should be a number; do not append a unit.

>  <SMILES TEXT>
Clc1ccc(-c2cc(-c3ccsc3)c3oc4ccccc4c3n2)cc1

>  <QUANTITATIVE READOUT>
0.92

$$$$
>  <SMILES TEXT>
Clc1ccccc1-c1cc(-c2ccco2)c2oc3ccccc3c2n1

>  <QUANTITATIVE READOUT>
0.99

$$$$
>  <SMILES TEXT>
Clc1cccc(-c2cc(-c3ccsc3)c3oc4ccccc4c3n2)c1

>  <QUANTITATIVE READOUT>
0.81

$$$$

Pending compound:
Input line: Which measured fold change (FC) belongs to Clc1cccc(-c2cc(-c3cccs3)c3oc4ccccc4c3n2)c1 , tested on DNA topoisomerase 1 (Homo sapiens) (UniProt P11387)?
Output line: 0.98

* * *

As shown below, each of these molecules has a reported inhibition value.
TGT: DNA topoisomerase 1 (Homo sapiens)
Sequence (whole entry): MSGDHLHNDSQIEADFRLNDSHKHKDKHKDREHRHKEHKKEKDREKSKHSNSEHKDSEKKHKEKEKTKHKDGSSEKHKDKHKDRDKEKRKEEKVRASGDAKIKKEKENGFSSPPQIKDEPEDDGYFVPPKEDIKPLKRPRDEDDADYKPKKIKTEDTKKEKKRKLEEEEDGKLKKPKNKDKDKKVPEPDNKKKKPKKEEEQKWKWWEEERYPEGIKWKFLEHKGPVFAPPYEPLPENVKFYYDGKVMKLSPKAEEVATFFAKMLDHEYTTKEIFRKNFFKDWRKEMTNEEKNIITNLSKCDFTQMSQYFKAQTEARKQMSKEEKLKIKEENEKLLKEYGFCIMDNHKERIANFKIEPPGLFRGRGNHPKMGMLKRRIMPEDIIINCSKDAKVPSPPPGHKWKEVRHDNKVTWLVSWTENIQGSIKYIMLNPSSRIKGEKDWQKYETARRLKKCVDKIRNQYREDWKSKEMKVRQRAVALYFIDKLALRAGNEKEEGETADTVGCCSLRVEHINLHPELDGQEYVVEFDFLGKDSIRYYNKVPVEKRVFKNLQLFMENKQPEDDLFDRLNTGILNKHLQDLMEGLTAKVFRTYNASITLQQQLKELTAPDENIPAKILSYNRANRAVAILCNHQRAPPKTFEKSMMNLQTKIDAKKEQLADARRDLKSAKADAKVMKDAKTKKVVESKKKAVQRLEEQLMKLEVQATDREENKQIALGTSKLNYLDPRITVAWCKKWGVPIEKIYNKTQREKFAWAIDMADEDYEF
TEST: Inhibition of human recombinant DNA topoisomerase 1 assessed as reduction in enzyme-mediated relaxation of supercoiled pBR322 plasmid DNA at 100 uM in presence of 0.1% BSA by ethidium bromide staining based gel electrophoresis and UV spectroscopy
Value expressed in %; do not type the unit.

>  <SMILES TEXT>
Clc1ccc(-c2cc(-c3ccco3)c3oc4ccccc4c3n2)cc1

>  <inhibition [%]>
100

$$$$
>  <SMILES TEXT>
Clc1cccc(-c2cc(-c3ccco3)c3oc4ccccc4c3n2)c1

>  <inhibition [%]>
100

$$$$
>  <SMILES TEXT>
Clc1cccc(-c2cc(-c3ccc(Cl)o3)c3oc4ccccc4c3n2)c1

>  <inhibition [%]>
100

$$$$
>  <SMILES TEXT>
Clc1ccc(-c2cc(-c3ccccc3Cl)nc3c2oc2ccccc23)o1

>  <inhibition [%]>
100

$$$$
>  <SMILES TEXT>
Clc1cccc(-c2cc(-c3ccccc3)c3oc4ccccc4c3n2)c1

>  <inhibition [%]>
80.6

$$$$

Now, please, on to the next molecule.
Input line: Please provide the recorded inhibition for Clc1ccccc1-c1cc(-c2ccco2)c2oc3ccccc3c2n1 , tested on DNA topoisomerase 1 (Homo sapiens).
Output line: 86.1

Every entry's value here was drawn from ChEMBL document CHEMBL4052690.
